- tested.system: chymotrypsin (Bos taurus)
- assay.notes: in vitro
- measurement.parameters: isolated enzyme chymotrypsin, pH 7.8, Remaining peak area (%)/chymotrypsin
assay.metric: remaining at 0.075 h, 60 μM (%)
Give your result in % as a bare value.

Entry CC[C@H](C)[C@H](N)C(=O)N[C@@H](Cc1c[nH]cn1)C(=O)N[C@H](C(=O)N[C@H](C(=O)N[C@H](C(=O)N1CCC[C@H]1C(=O)N[C@@H](C)C(=O)N[C@@H](CC(=O)O)C(=O)N[C@@H](CC(C)C)C(=O)N[C@@H](Cc1c[nH]c2ccccc12)C(=O)N[C@@H](CC(=O)O)C(=O)N[C@@H](Cc1c[nH]c2ccccc12)C(=O)N[C@H](C(=O)N[C@@H](CC(N)=O)C(=O)O)[C@@H](C)CC)[C@@H](C)CC)[C@@H](C)O)C(C)C [17A, reference compound] : reported remaining at 0.075 h, 60 μM = ? 46.2

###

Bridge positions count the residues as written; N and C are the ends. Peptide text beside a SMILES is read from it.
assay.metric: Ki (µM)
// note: answer is a bare numeric in µM

α-chymotrypsin (Bos taurus, UniProt P00766) / Ki / C[C@@H]1NC(=O)[C@@H](NC(=O)[C@@H](N)Cc2ccccc2)CSSC[C@@H](C(=O)N[C@@H](CCC(N)=O)C(=O)O)NC(=O)[C@H](CCCCN)NC(=O)[C@@H]2CCCN2C(=O)[C@@H]2CCCN2C(=O)[C@H](CC(N)=O)NC(=O)[C@H](CO)NC(=O)[C@H](Cc2ccc(O)cc2)NC1=O [CH44] (H-FCAYSNPPKCQ-OH; disulfide 2-10; N-terminus and C-terminus assumed) : value? 8.59

Item CC[C@H](C)[C@H](N)C(=O)N[C@H]1CSSC[C@@H](C(=O)N[C@@H](Cc2ccccc2)C(=O)O)NC(=O)[C@H](CCC(N)=O)NC(=O)[C@H](C)NC(=O)[C@@H]2CCCN2C(=O)[C@H]([C@@H](C)CC)NC(=O)[C@H](CO)NC(=O)[C@H](Cc2ccccc2)NC(=O)[C@H]([C@@H](C)O)NC1=O [CH40] (H-ICTFSIPAQCF-OH; disulfide 2-10; N-terminus and C-terminus assumed) with α-chymotrypsin (Bos taurus, UniProt P00766) - Ki? 1.06

###

- tested.system: α-chymotrypsin (Bos taurus, UniProt P00766)
Bridge positions count the residues as written; N and C are the ends. Peptide text beside a SMILES is read from it.
assay.metric: pIC50
Bear in mind: pIC50 is minus log10 of a mol/L concentration; give just that figure.

Data request, read-out pIC50, for CC[C@H](C)[C@@H]1NC(=O)[C@H](CO)NC(=O)[C@H](Cc2ccc(O)cc2)NC(=O)[C@H]([C@@H](C)O)NC(=O)[C@@H](NC(=O)[C@@H](N)CO)CSSC[C@@H](C(=O)N[C@@H](Cc2ccc(O)cc2)C(=O)NCC(=O)O)NC(=O)[C@H](CCC(N)=O)NC(=O)[C@@H]2CCCN2C(=O)[C@@H]2CCCN2C1=O [CH4] (H-SCTYSIPPQCYG-OH; disulfide 2-10; N-terminus and C-terminus assumed) 5.89

Which pIC50 is reported for this compound? CC[C@H](C)[C@H](N)C(=O)N[C@H]1CSSC[C@@H](C(=O)N[C@@H](Cc2ccccc2)C(=O)O)NC(=O)[C@H](CCC(N)=O)NC(=O)[C@H](C)NC(=O)[C@@H]2CCCN2C(=O)[C@H]([C@@H](C)CC)NC(=O)[C@H](CO)NC(=O)[C@H](Cc2ccccc2)NC(=O)[C@H]([C@@H](C)O)NC1=O [CH40] (H-ICTFSIPAQCF-OH; disulfide 2-10; N-terminus and C-terminus assumed) 5.61
